Please go through the items and note down their IC50.
Biological target: various mutants of kinase EGFR (BaF3 cell lines stably transfected with kinase) (Homo sapiens, UniProt P00533, C797S/L858R/T790M)
Construct: expressed in transfected cells; host or cells: BaF3
Sequence (P00533 25-1210 T790M/C797S/L858R): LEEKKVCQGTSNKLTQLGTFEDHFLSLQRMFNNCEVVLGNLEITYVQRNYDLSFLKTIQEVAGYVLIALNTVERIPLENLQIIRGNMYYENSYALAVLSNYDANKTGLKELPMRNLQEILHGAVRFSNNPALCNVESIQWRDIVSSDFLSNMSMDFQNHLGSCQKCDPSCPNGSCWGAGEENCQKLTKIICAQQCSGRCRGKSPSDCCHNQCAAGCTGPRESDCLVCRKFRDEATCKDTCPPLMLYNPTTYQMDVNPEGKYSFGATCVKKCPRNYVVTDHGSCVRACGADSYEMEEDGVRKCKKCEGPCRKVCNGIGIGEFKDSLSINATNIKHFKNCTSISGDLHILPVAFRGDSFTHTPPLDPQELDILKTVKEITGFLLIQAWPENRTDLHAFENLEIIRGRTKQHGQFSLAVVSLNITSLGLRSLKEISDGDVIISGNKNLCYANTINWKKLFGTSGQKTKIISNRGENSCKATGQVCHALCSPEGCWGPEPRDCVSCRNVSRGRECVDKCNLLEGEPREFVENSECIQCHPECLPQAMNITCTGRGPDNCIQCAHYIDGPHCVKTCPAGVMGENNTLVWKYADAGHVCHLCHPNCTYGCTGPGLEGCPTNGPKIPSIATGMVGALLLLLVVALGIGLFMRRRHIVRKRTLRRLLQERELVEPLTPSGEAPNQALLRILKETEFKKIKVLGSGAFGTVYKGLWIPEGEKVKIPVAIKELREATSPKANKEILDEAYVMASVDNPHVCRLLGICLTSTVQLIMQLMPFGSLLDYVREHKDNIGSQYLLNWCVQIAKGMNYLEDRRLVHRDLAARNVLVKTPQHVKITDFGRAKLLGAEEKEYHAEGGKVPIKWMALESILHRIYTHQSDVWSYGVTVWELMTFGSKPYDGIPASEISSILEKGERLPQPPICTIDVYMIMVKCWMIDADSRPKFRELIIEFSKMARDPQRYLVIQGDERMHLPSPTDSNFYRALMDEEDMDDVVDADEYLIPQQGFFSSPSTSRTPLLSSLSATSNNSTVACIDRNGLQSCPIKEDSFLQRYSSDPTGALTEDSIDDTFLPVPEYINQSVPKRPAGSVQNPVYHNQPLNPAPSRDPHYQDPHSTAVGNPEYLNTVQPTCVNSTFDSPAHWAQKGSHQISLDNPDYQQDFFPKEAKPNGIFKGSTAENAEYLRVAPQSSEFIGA
Experiment: Growth inhibitory activity of compounds on BaF3 cell lines stably transfected with kinase (MTS, 48 h)
Format: cell-based
Conditions: BaF3 cell line stably transfected with EGFR L858R/T790M/C797S, read-out: L858R/T790M/ C797S growth inhibitory activity IC50

Request: In one line, give reported IC50 of the entry CCN(c1c(Nc2nc(Nc3cc(N4CCC(O)CC4)ccc3OC)ncc2Br)ccc2nccnc12)S(C)(=O)=O .
Response: ≤ 50 nM

Request: In one line, give reported IC50 of the entry CCc1cc(Nc2nc(Nc3ccc4nccnc4c3N(C)S(C)(=O)=O)c3sccc3n2)c(OC)nc1N1CCC(N2CCN(C)CC2)CC1 .
Response: 50 to 500 nM

Request: In one line, give reported IC50 of the entry COc1nc(N2CCC(N3CCN(C)CC3)CC2)ccc1Nc1ncc(Br)c(Nc2ccc3nccnc3c2N(C2CC2)S(C)(=O)=O)n1 .
Response: 50 to 500 nM

Request: In one line, give reported IC50 of the entry COc1ccc(N2CCC(O)CC2)cc1Nc1ncc(F)c(Nc2ccc3nccnc3c2N(C)S(C)(=O)=O)n1 .
Response: 50 to 500 nM

Request: In one line, give reported IC50 of the entry CCc1cc(Nc2nc(Nc3ccc4nccnc4c3N(C)S(C)(=O)=O)c3[nH]ccc3n2)c(OC(F)(F)F)cc1N1CCC(N2CCN(C)CC2)CC1 .
Response: 50 to 500 nM

Request: In one line, give reported IC50 of the entry COc1ccc(N2CCC(O)CC2)cc1Nc1ncc(Br)c(Nc2ccc3nccnc3c2N(C)S(=O)(=O)C(F)(F)F)n1 .
Response: ≤ 50 nM

Request: In one line, give reported IC50 of the entry COc1ccc(N2CCNCC2)cc1Nc1ncc(Br)c(Nc2ccc3nccnc3c2N(C)S(C)(=O)=O)n1 .
Response: 50 to 500 nM

Request: In one line, give reported IC50 of the entry CCc1cc(Nc2ncc(Br)c(Nc3ccc4nccnc4c3N(C)S(C)(=O)=O)n2)c(OC)cc1NCCO .
Response: ≤ 50 nM

Request: In one line, give reported IC50 of the entry COc1nc(N2CCC(N3CCN(C)CC3)CC2)c(C)cc1Nc1ncc(Br)c(Nc2ccc3nccnc3c2N(C2CC2)S(C)(=O)=O)n1 .
Response: 500 to 2500 nM

Request: In one line, give reported IC50 of the entry COc1cc(N2CCC(N3CCN(C)CC3)CC2)c(CC2CC2)cc1Nc1ncc(Br)c(Nc2ccc3nccnc3c2NS(C)(=O)=O)n1 .
Response: ≤ 50 nM

Request: In one line, give reported IC50 of the entry COc1cc(N2CCC(N3CCN(C)CC3)CC2)c(C(C)C)cc1Nc1nccc(Nc2ccc3nccnc3c2N(C)S(C)(=O)=O)n1 .
Response: 500 to 2500 nM

Request: In one line, give reported IC50 of the entry CCc1cc(Nc2ncc(CC)c(Nc3ccc4nccnc4c3N(C)S(C)(=O)=O)n2)c(OC)cc1N1CCC(N(C)C)C1 (centres unmarked) .
Response: ≤ 50 nM

Request: In one line, give reported IC50 of the entry COc1nc(N2CCC(N3CCN(C)CC3)CC2)c(C)cc1Nc1nc(Nc2ccc3nccnc3c2N(C)S(C)(=O)=O)c2[nH]ccc2n1 .
Response: 500 to 2500 nM

Request: In one line, give reported IC50 of the entry CCc1cc(Nc2ncc(Br)c(Nc3ccc4nccnc4c3NS(C)(=O)=O)n2)c(OC)nc1N1CCC(N2CCN(C)CC2)CC1 .
Response: ≤ 50 nM

Request: In one line, give reported IC50 of the entry COc1cc(N2CCC(N3CCN(C)CC3)CC2)c(C)cc1Nc1ncc(Br)c(Nc2ccc3nccnc3c2NS(=O)(=O)C(C)C)n1 .
Response: ≤ 50 nM

Request: In one line, give reported IC50 of the entry CCc1cc(Nc2nc(Nc3ccc4nccnc4c3N(C)S(C)(=O)=O)c3cc[nH]c3n2)c(OC(F)(F)F)cc1N1CCC(N2CCN(C)CC2)CC1 .
Response: ≤ 50 nM

Request: In one line, give reported IC50 of the entry COc1ccc(N2CCC(O)CC2)cc1Nc1ncc(Br)c(Nc2ccc3nccnc3c2N(C)S(=O)(=O)C2CC2)n1 .
Response: ≤ 50 nM

Request: In one line, give reported IC50 of the entry CCc1cc(Nc2nc(Nc3ccc4nccnc4c3N(C)S(C)(=O)=O)c3ccsc3n2)c(OC(F)(F)F)cc1N1CCC(N2CCN(C)CC2)CC1 .
Response: 500 to 2500 nM

Request: In one line, give reported IC50 of the entry CCn1ccc(Nc2ncc(Br)c(Nc3ccc4nccnc4c3N(C)S(C)(=O)=O)n2)n1 .
Response: ≤ 50 nM

Request: In one line, give reported IC50 of the entry COc1cc(N2CCC(N(C)C)CC2)c(C)cc1Nc1nc(Nc2ccc3nccnc3c2N(C)S(C)(=O)=O)c2sccc2n1 .
Response: 50 to 500 nM

Request: In one line, give reported IC50 of the entry CCc1cc(Nc2ncc(CC)c(Nc3ccc4nccnc4c3N(C)S(C)(=O)=O)n2)c(OC(F)(F)F)cc1N1CCC(N2CCN(C)CC2)CC1 .
Response: 50 to 500 nM

Request: In one line, give reported IC50 of the entry CCc1cc(Nc2ncc(C)c(Nc3ccc4nccnc4c3N(C)S(C)(=O)=O)n2)c(OC(F)(F)F)cc1N1CCC(N2CCN(C)CC2)CC1 .
Response: ≤ 50 nM

Request: In one line, give reported IC50 of the entry COc1ccc(N2CCC(O)CC2)cc1Nc1ncc(Br)c(Nc2ccc3nccnc3c2N(C)S(=O)(=O)C(C)C)n1 .
Response: ≤ 50 nM

Request: In one line, give reported IC50 of the entry COc1cc(N2CCC(N3CCN(C)CC3)CC2)c(C)cc1Nc1nc(Nc2ccc3nccnc3c2N(C)S(C)(=O)=O)c2occc2n1 .
Response: 50 to 500 nM

Request: In one line, give reported IC50 of the entry CCc1cc(Nc2ncc(Br)c(Nc3ccc4nccnc4c3NS(C)(=O)=O)n2)c(OC)cc1N1CCC(N(C)C)CC1 .
Response: ≤ 50 nM

Request: In one line, give reported IC50 of the entry CCc1cc(Nc2ncc(Br)c(Nc3ccc4nccnc4c3N(C)S(C)(=O)=O)n2)c(OC)cc1C(=O)N1CCC(N2CCN(C)CC2)CC1 .
Response: 50 to 500 nM

====

Target: various mutants of kinase EGFR (BaF3 cell lines stably transfected with kinase) (Homo sapiens, UniProt P00533, L858R/T790M)
Construct: expressed in transfected cells; host or cells: BaF3
Sequence (P00533 25-1210 T790M/L858R): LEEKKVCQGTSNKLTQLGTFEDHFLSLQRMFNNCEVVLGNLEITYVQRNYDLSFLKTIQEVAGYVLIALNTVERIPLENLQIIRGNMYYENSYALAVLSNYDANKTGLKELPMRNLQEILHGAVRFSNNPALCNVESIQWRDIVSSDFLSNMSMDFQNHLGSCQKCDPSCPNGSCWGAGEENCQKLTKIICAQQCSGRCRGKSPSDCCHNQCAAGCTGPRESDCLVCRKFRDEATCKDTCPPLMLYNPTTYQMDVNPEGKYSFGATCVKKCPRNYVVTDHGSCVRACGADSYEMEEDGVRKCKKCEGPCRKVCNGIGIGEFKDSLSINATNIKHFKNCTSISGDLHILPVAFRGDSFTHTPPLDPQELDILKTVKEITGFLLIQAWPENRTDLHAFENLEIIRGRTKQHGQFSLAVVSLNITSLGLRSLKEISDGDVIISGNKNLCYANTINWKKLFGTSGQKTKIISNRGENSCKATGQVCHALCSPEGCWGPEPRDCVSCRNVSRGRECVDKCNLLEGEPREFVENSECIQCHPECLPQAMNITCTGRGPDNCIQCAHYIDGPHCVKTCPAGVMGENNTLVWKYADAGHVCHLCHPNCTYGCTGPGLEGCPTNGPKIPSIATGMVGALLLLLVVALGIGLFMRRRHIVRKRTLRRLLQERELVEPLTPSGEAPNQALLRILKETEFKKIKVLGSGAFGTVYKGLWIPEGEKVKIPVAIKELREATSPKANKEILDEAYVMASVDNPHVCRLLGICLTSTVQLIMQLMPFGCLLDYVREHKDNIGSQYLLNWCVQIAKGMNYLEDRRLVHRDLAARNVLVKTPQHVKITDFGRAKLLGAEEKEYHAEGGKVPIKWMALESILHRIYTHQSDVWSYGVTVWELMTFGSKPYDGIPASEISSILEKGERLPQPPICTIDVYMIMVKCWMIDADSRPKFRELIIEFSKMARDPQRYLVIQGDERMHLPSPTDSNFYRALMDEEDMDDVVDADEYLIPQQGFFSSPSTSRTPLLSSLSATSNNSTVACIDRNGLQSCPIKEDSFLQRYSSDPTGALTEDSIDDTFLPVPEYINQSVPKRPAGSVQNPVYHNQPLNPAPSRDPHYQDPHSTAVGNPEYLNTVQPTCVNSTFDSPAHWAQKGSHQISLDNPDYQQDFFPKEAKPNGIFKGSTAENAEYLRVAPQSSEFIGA
Test: Growth inhibitory activity of compounds on BaF3 cell lines stably transfected with kinase (MTS, 48 h)
Format: cell-based
Settings: BaF3 cell line stably transfected with EGFR L858R/T790M, read-out: L858R/ T790M growth inhibitory activity IC50
pIC50: −log10 of the molar value.
Please go through the items and note down their pIC50.

Request: In one line, give reported pIC50 of the entry CCc1cc(Nc2nc(Nc3ccc4nccnc4c3N(C)S(C)(=O)=O)c3sccc3n2)c(OC)cc1N1CCC(N(C)C)C1 (stereo not shown) .
Response: 6.30 to 7.30

Request: In one line, give reported pIC50 of the entry CCc1cc(Nc2ncc(C3CC3)c(Nc3ccc4nccnc4c3N(C)S(C)(=O)=O)n2)c(OC)cc1C(=O)N1CCC(N2CCN(C)CC2)CC1 .
Response: 6.30 to 7.30

Request: In one line, give reported pIC50 of the entry COc1ccc(N2CCNCC2)cc1Nc1ncc(Br)c(Nc2ccc3nccnc3c2N(C)S(C)(=O)=O)n1 .
Response: ≥ 7.30

Request: In one line, give reported pIC50 of the entry CCc1cc(Nc2ncc(OC)c(Nc3ccc4nccnc4c3N(C)S(C)(=O)=O)n2)c(OC)nc1N1CCC(N2CCN(C)CC2)CC1 .
Response: ≥ 7.30

Request: In one line, give reported pIC50 of the entry CCc1cc(Nc2ncc(CC)c(Nc3ccc4nccnc4c3N(C)S(C)(=O)=O)n2)ccc1N1CCC(N2CCN(C)CC2)CC1 .
Response: ≥ 7.30

Request: In one line, give reported pIC50 of the entry COc1ccc(N2CCC(O)CC2)cc1Nc1ncc(C(F)(F)F)c(Nc2ccc3nccnc3c2N(C)S(C)(=O)=O)n1 .
Response: ≥ 7.30

Request: In one line, give reported pIC50 of the entry COc1cc(N2CCN(C)CC2)c(C)cc1Nc1nc(Nc2ccc3nccnc3c2N(C)S(C)(=O)=O)c2[nH]ccc2n1 .
Response: 5.60 to 6.30

====

Target: various mutants of kinase EGFR (BaF3 cell lines stably transfected with kinase) (Homo sapiens, UniProt P00533, C797S/L858R/T790M)
Construct: expressed in transfected cells; host or cells: BaF3
Assay: Growth inhibitory activity of compounds on BaF3 cell lines stably transfected with kinase (MTS, 48 h)
Assay type: cell-based
Conditions: BaF3 cells stably transfected with EGFR L858R/T790M/C797S, read-out: IC50, growth inhibition, L858R/T790M/C797S
Description: The activity of compounds against various mutants of kinase EGFR was evaluated by their effect of inhibiting growth of BaF3 cell lines stably transfected with kinase. The specific test method was given as follows: […] 3) Compound test: cells were incubated into a 96-well culture plate, the volume of cytosol was 90 µL, and then 10 µL of the compound at each gradient concentration was added. […] OD values at 490 nm were measured by a microplate reader (VARIOSKAN FLASH, Thermo). […]
Please go through the items and note down their IC50.

Request: In one line, give reported IC50 of the entry CCc1cc(Nc2ncc(Br)c(Nc3ccc4nccnc4c3N(C)S(=O)(=O)C(F)(F)F)n2)c(OC)cc1N1CCN(C)CC1 .
Response: 0.05 to 0.5 µM

Request: In one line, give reported IC50 of the entry CCc1cc(Nc2ncc(F)c(Nc3ccc4nccnc4c3N(C)S(=O)(=O)C3CC3)n2)c(OC)cc1N1CCC(N2CCN(C)CC2)CC1 .
Response: 0.05 to 0.5 µM

Request: In one line, give reported IC50 of the entry CCc1cc(Nc2ncc(Cl)c(Nc3ccc4nccnc4c3N(C3CC3)S(C)(=O)=O)n2)c(OC(F)(F)F)cc1N1CCC(N2CCN(C)CC2)CC1 .
Response: 0.05 to 0.5 µM

Request: In one line, give reported IC50 of the entry CCN(c1c(Nc2nc(Nc3cc(CC4CC4)c(N4CCC(N5CCN(C)CC5)CC4)cc3OC)ncc2Br)ccc2nccnc12)S(C)(=O)=O .
Response: ≤ 0.05 µM

Request: In one line, give reported IC50 of the entry COc1cc(N2CCC(N3CCN(C)CC3)CC2)c(C(C)C)cc1Nc1ncc(Br)c(Nc2ccc3nccnc3c2N(C)S(C)(=O)=O)n1 .
Response: ≤ 0.05 µM

Request: In one line, give reported IC50 of the entry Cc1cc(Nc2ncc(Br)c(Nc3ccc4nccnc4c3N(C)S(C)(=O)=O)n2)c(OC(C)C)cc1C1CCN(C)CC1 .
Response: 0.05 to 0.5 µM

Request: In one line, give reported IC50 of the entry COc1cc(N2CCC(N(C)C)C2)c(C)cc1Nc1ncc(C2CC2)c(Nc2ccc3nccnc3c2N(C)S(C)(=O)=O)n1 (stereo not shown) .
Response: 0.05 to 0.5 µM

Request: In one line, give reported IC50 of the entry CCc1cc(Nc2ncc(F)c(Nc3ccc4nccnc4c3N(C)S(=O)(=O)C3CC3)n2)c(OC)cc1N1CCC(N(C)C)CC1 .
Response: 0.05 to 0.5 µM

Request: In one line, give reported IC50 of the entry CCc1cc(Nc2ncc(F)c(Nc3ccc4nccnc4c3N(C)S(=O)(=O)C3CC3)n2)c(OC(F)(F)F)cc1N1CCC(N2CCN(C)CC2)CC1 .
Response: 0.5 to 2.5 µM

Request: In one line, give reported IC50 of the entry COc1cc(N2CCC(N3CCN(C)CC3)CC2)c(C)cc1Nc1ncc(Br)c(Nc2ccc3nccnc3c2N(C)S(=O)(=O)C(C)C)n1 .
Response: ≤ 0.05 µM

Request: In one line, give reported IC50 of the entry CCc1cc(Nc2ncc(C3CC3)c(Nc3ccc4nccnc4c3N(C)S(C)(=O)=O)n2)ccc1N1CCC(N2CCN(C)CC2)CC1 .
Response: 0.05 to 0.5 µM

Request: In one line, give reported IC50 of the entry CCc1cc(Nc2ncc(C(F)(F)F)c(Nc3ccc4nccnc4c3N(C)S(C)(=O)=O)n2)c(OC)nc1N1CCC(N2CCN(C)CC2)CC1 .
Response: ≤ 0.05 µM

Request: In one line, give reported IC50 of the entry COc1cc(N2CCC(N3CCN(C)CC3)CC2)ccc1Nc1ncc(C(F)(F)F)c(Nc2ccc3nccnc3c2N(C)S(C)(=O)=O)n1 .
Response: 0.05 to 0.5 µM
